protocolText: AUC in rhesus monkey plasma at 0.5 mg/kg, iv by LC/MS/MS analysis
Assay type: ADME, organism-based, Macaca mulatta
measuredMetric: AUC (µM·h)
Answers are plain numbers, in µM·h.

Qu. Fill in reported AUC for this entry: CO[C@H]1C[C@H](Oc2cc(F)c(F)c(-c3ccc4c(c3)CC[C@H](CCC(=O)O)O4)n2)C1
Ans. 57.8

---

I'd appreciate it if you could supply concentration at 3 h values for the items below.
protocolText: Plasma concentration in C57BL/6 transverse aortic constriction mouse at 30 mg/kg, po via gavage measured at 3 hrs
Assay type: ADME, organism-based
statedConditions: C57BL/6, mouse

INSERT INTO assay_data (smilesnotation, reportedvalue) VALUES
  ('CO[C@H]1C[C@H](Oc2cc(F)c(F)c(-c3ccc4c(c3)CC[C@H](CCC(=O)O)O4)n2)C1', '3.12 µM');

Please look at the following compound next.
Qu. Fill in reported concentration at 3 h for this entry: CO[C@H]1C[C@H](Oc2cc(F)c(F)c(-c3ccc4c(c3)CC[C@H]([C@@H]3C[C@H]3C(=O)O)O4)c2)C1
Ans. 37.4 µM
